substrate: NP of A/Wisconsin/67/2005(H3N2/H3W) (influenza A virus A/Wisconsin/67/2005 (H3N2)); assay: ELISA on virus-infected fixed MDCK cells
Sequence (P03466 whole entry): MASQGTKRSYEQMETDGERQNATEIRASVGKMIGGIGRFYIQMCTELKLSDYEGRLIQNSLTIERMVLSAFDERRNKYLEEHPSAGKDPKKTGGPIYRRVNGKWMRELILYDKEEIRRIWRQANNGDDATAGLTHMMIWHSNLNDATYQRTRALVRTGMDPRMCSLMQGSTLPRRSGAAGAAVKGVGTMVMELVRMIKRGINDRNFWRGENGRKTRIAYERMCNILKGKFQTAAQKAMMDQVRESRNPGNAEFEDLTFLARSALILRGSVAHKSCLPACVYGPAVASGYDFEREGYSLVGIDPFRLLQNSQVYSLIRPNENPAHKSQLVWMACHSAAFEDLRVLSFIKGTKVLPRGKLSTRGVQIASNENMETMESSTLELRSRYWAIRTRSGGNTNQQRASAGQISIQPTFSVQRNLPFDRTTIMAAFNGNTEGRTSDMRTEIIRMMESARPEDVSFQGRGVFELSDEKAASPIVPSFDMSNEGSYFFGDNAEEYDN
measure: EC50 (nM)
The reply should be a number in nM, with the unit left off.

Task item: Name the reported EC50 value associated with the binder NP16 (antibody, V domains shown) VH: EVQLVESGGGLVQPGGSLRLSCAASGFTIGNSGIHWVRQAPGKGLEWVAWIGPYWGFTSYADSVKGRFTISADTSKNTAYLQMNSLRAEDTAVYYCARFGNHWHLFMDYWGQGTLVTVSS VL: DIQMTQSPSSLSASVGDRVTITCRASQDVGSYVAWYQQKPGKAPKLLISWTTGLYSGVPSRFSGSGSGTDFTLTISSLQPEDFATYYCQQYFSYPVTFGQGTKVEIKR
Reply: 0.248
